# credit: PubChem BioAssay AID588511

Target system: Anoctamin-1 (Mus musculus)
Measurement protocol: blockers of mouse ANO1 Ca-activated Cl channel – cell-based, HTS, primary screen (AID 588511);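 for normalized B-score (activity score, 25-100; higher = stronger inhibition): score derived from kinetic fluorescence span divided by baseline fluorescence per well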
Condition notes: HEK293 TMEM16A/YFP iodide influx fluorescence, ionomycin; at 10 µM
Screen size: about 310,000 compounds; about 3,600 (1.2%) were called active. Only a selection was taken, and actives are over-represented in it overall.
Measurement kind: normalized B-score (activity score, 25-100; higher = stronger inhibition)

Compound | Target system | Observed measurement
O=c1c(-c2ccc3c(c2)OCCO3)c(C(F)(F)F)oc2cc(O)cc(O)c12 | Anoctamin-1 (Mus musculus) | inactive
O=C(NC(=S)Nc1ccc(S(=O)(=O)N2CCOCC2)cc1)c1ccccc1[N+](=O)[O-] | Anoctamin-1 (Mus musculus) | inactive
Cc1ccc(NC(=O)C(=O)NCc2ccc(/C=N/NC(=O)c3c(C)nc4cc(C)ccn34)o2)cc1 | Anoctamin-1 (Mus musculus) | inactive
Cc1ccc(C(=O)NNC(=O)C(C)Oc2ccc3ccccc3c2)o1 (stereo not given) | Anoctamin-1 (Mus musculus) | inactive
CCOC(=O)c1cc2cc(-c3c(C(=O)OCC)oc4cc(O)cc(O)c4c3=O)ccc2o1 | Anoctamin-1 (Mus musculus) | 100 (active)

[in] Sample S=c1[nH]nc(NCCc2ccccc2)s1 — what was its normalized B-score (activity score, 25-100; higher = stronger inhibition)?
[out] inactive

* * *

Target system: Anoctamin-1 (Mus musculus) (UniProt Q8BHY3)
Sequence (Q8BHY3 whole entry, looked up): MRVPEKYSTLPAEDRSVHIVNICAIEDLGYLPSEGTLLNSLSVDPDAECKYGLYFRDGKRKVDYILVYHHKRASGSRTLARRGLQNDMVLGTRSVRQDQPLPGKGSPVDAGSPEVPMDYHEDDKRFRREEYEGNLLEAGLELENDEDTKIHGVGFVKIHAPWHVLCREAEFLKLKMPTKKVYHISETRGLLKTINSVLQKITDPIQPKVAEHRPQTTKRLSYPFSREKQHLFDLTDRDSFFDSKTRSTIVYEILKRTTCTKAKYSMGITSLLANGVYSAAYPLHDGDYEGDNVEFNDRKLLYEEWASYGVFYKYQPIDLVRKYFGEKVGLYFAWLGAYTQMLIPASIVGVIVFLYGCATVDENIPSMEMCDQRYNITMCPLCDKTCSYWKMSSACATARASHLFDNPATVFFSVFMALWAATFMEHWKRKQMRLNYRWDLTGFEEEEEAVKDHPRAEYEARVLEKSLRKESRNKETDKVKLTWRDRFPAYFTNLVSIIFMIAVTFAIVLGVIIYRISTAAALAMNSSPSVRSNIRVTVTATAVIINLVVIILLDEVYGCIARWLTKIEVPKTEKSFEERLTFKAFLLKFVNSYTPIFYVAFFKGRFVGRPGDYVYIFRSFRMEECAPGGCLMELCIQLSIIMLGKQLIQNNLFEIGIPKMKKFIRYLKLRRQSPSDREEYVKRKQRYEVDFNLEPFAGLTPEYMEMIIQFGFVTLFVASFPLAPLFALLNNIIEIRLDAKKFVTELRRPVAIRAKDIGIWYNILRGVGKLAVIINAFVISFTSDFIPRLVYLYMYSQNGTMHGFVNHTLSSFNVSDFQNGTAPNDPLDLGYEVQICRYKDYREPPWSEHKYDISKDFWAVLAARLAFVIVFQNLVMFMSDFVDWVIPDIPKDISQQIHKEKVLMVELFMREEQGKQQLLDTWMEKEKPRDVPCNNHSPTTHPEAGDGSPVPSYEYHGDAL
Measurement protocol: blockers of mouse ANO1 Ca-activated Cl channel – cell-based, HTS, primary screen (AID 588511)
Condition notes: HEK293 TMEM16A/YFP iodide influx fluorescence, ionomycin; at 10 µM
Out of some 310,000 compounds screened, about 3,600 (1.2%) were called active.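 Rule for the calls: active = ratio plate-corrected score three or more library SD toward inhibition, starting fluorescence score within five deviations; inactive = the rest.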 The list comes from a sample in which actives are over-represented; it also holds close analogues and randomly drawn compounds.
Tick one outcome: active, inactive

[in] What did this assay record as the result for c1ccc2c(c1)C(=NC1CCCCC1)NC2=NC1CCCCC1 ?
[out] inactive

[in] Record request — test call for CN(C(=O)COC(=O)c1ccc(Br)o1)c1c(N)n(Cc2ccccc2)c(=O)[nH]c1=O
[out] inactive

[in] // return assay outcome for CC(=O)c1cccc(OCc2cc(C(=O)NC(C)Cc3cccnc3)no2)c1 (stereo unspecified)
[out] inactive

[in] Can you look up the reported call for CC12CCC(C(=O)N(c3cccc(Cl)c3)C1=O)C2(C)C (stereo unspecified) for me?
[out] inactive

[in] Given CC(C)NC(=O)NCCCCCCS(C)=O (stereo unspecified) , state the outcome it received in this test.
[out] inactive

[in] For this molecule, state the assay outcome: COc1ccc(F)cc1C(=O)C1CCCN(C(=O)CCc2ccccn2)C1 (stereo unspecified)
[out] inactive

[in] Which outcome did this test record for the molecule CCCOc1ccc(Cc2c(O)nc(SC)[nH]c2=O)cc1C ?
[out] inactive

[in] Would you mind telling me which call this test gave CC1=NN(c2cccc(Cl)c2)C(=O)C12CC(C)=C(C)CS2 (stereo unspecified) ?
[out] active

[in] Tell me the recorded outcome of this test for Cc1ccc(SCC(=O)Nc2ccc3c(c2)OCCO3)cc1 .
[out] inactive

[in] Which outcome did this test record for the molecule Cc1ccc(C(=O)CSc2ccccc2C(=O)O)cc1 ?
[out] inactive

[in] GET /call?item= Cc1ccc(SCC(=O)c2cc(C)c(OC(=S)N(C)C)c(C)c2)cc1 returns the recorded outcome of this test.
[out] active

* * *

Target system: Anoctamin-1 (Mus musculus)
Measurement protocol: blockers of mouse ANO1 Ca-activated Cl channel – cell-based, HTS, primary screen (AID 588511)
Condition notes: HEK293 TMEM16A/YFP iodide influx fluorescence, ionomycin; at 10 µM
The campaign covered roughly 310,000 compounds. About 3,600 (1.2%) were called active.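 The calls were made as follows: active = ratio plate-corrected score three or more library SD toward inhibition, starting fluorescence score within five deviations; inactive = the rest.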 The sample as a whole holds a higher share of actives than the screen did.
Your answer must be one of the following: true for active, false for inactive

[in] Just curious, what result did O=C(Nc1ccc(NC(=O)c2ccccc2F)cc1)c1ccccc1F get here?
[out] false

[in] Test call for this molecule, please: CCOc1ccc2nc(NC(=O)c3cc([N+](=O)[O-])ccc3N3CCOCC3)sc2c1
[out] false

[in] Lab log entry: O=C(NCCc1ccccc1)c1ccc2c(c1)N(Cc1ccccc1)CCS2 — outcome as called in the assay?
[out] false

[in] Given Cc1ccc(OCc2nc(C#N)c(N3CCCC3)o2)cc1 , state the outcome it received in this test.
[out] false

[in] Outcome? O=C(NCCN1CCOCC1)c1ccc2c(c1)N(Cc1ccc(Cl)cc1)CCS2
[out] false

[in] Assay outcome for O=C(Nc1ccc(S(=O)(=O)N2CCCCC2)cc1)C1CC(=O)N(c2ccc(F)cc2)C1 (stereo not given) : what was it?
[out] false

[in] Check the results log: what was the call for O=S(=O)(c1ccc(Br)cc1)c1nc(-c2ccccc2)oc1NCc1cccnc1 ?
[out] false

[in] What outcome does the record of this test show for Cc1cc(C)cc(OCC(=O)Nc2nc3ccc([N+](=O)[O-])cc3s2)c1 ?
[out] true

[in] Test call for this molecule, please: CCOC(=O)N/N=C1\CC(C)S(=O)(=O)c2ccc(Cl)cc21 (stereo not given)
[out] false

[in] What did the test return for CCOC(=O)N1CCN(C(=O)c2ccc3c(c2)N(Cc2ccc(C)cc2)CCS3)CC1 ?
[out] true

* * *

Target system: Anoctamin-1 (Mus musculus)
Measurement protocol: blockers of mouse ANO1 Ca-activated Cl channel – cell-based, HTS, primary screen (AID 588511)
Condition notes: HEK293 TMEM16A/YFP iodide influx fluorescence, ionomycin; at 10 µM
Among all 310,000 compounds or so, about 3,600 (1.2%) were called active.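 Rule for the calls: active = ratio plate-corrected score three or more library SD toward inhibition, starting fluorescence score within five deviations; inactive = the rest.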 This excerpt belongs to a sample that is enriched for actives.
// allowed return values: active, inactive

[in] What did this assay record as the result for Cc1ccc(-n2ncc3c(N4CCN(c5ccc(F)cc5)CC4)ncnc32)c(C)c1 ?
[out] active

[in] Answer briefly: the call reported for CCc1ccc(C2C(C#N)=C(N)N(N3CCOCC3)C3=C2C(=O)CC(C)(C)C3)s1 (stereo not given) in this assay.
[out] inactive

[in] Any idea what this test logged for CCN(CC)S(=O)(=O)c1ccc(NC(=O)c2cnc(C)cn2)cc1 ?
[out] inactive

[in] // param item: COc1ccc(S(=O)(=O)N2CCCCCC2)cc1C(=O)N(C)Cc1cccc(OC)c1OC ; yields the recorded call
[out] inactive

[in] Hi team, can someone confirm the assay call for Cc1cc(C)c2c(-n3cccc3)c(C(=O)NNS(=O)(=O)c3ccc(F)cc3)sc2n1 ?
[out] inactive

* * *

Target system: Anoctamin-1 (Mus musculus) (UniProt Q8BHY3)
Measurement protocol: blockers of mouse ANO1 Ca-activated Cl channel – cell-based, HTS, primary screen (AID 588511)
Condition notes: HEK293 TMEM16A/YFP iodide influx fluorescence, ionomycin; at 10 µM
Screen size: about 310,000 compounds; about 3,600 (1.2%) were called active.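 The calls were made as follows: active = ratio plate-corrected score three or more library SD toward inhibition, starting fluorescence score within five deviations; inactive = the rest.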 Shown is part of a subset that was picked to be rich in actives.
Pick one and only one: active, inactive

[in] Can you look up the reported call for Nc1nc(SCC(=O)Nc2cc(C(F)(F)F)ccc2Cl)[nH]c(=O)c1NC(=O)c1ccco1 for me?
[out] inactive

[in] Field: outcome | Entry: O=C(/C=C/c1ccco1)NC(=S)N1CCCCC1
[out] inactive

[in] Which result was noted for this compound in the test: Cc1ccc2c(c1)N(CC(=O)N1CCCc3ccccc31)C(=O)C(C)O2 (stereo unspecified)
[out] active

[in] State the result this test recorded for COc1ccc([C@H]2[C@H](C(C)=O)N3N=Cc4ccccc4C3C23C(=O)OC(C)(C)OC3=O)cc1 (stereo partly specified) .
[out] inactive

[in] Would you mind telling me which call this test gave COc1ccc(CNc2nnnn2C)cc1 ?
[out] active

[in] I would be grateful if you could indicate the recorded call for CCC(=O)N1CCCc2ccccc21 .
[out] inactive

* * *

Target system: Anoctamin-1 (Mus musculus)
Measurement protocol: blockers of mouse ANO1 Ca-activated Cl channel – cell-based, HTS, primary screen (AID 588511)
Condition notes: HEK293 TMEM16A/YFP iodide influx fluorescence, ionomycin; at 10 µM
The whole screen tested about 310,000 compounds, of which about 3,600 (1.2%) were called active.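 The calls were made as follows: active = ratio plate-corrected score three or more library SD toward inhibition, starting fluorescence score within five deviations; inactive = the rest.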 For the sample, actives were picked, then their nearest neighbours and some compounds at random.
Outcome field: choose from true (1) (active), false (0) (inactive)

[in] Could you kindly confirm the outcome this assay logged for CCOC(=O)c1cccc(NC(=O)CCn2nnc3ccccc32)c1 ?
[out] true (1)

[in] What outcome does the record of this test show for CCCCOc1ccc(-c2ncc(C(=O)OCC)c(N)n2)cc1 ?
[out] false (0)

[in] // param item: CCCc1cc(C(=O)N2CCCC(CO)(CCCc3ccccc3)C2)n(C)n1 (stereo not drawn) ; yields the recorded call
[out] false (0)

[in] What was the test verdict on CC1Cc2ccccc2N1C(=O)CSc1nnc(C2CC2)n1C (stereo not drawn) ?
[out] false (0)

[in] Kindly provide the recorded test outcome for the following molecule: Cc1ccc(OCc2nc3ccccc3n2C)cc1
[out] false (0)

[in] Please share the test call associated with CCOC(=O)CSc1nccc(N(C)C)c1C#N .
[out] false (0)

[in] Call for entry CCOC(=O)C(Sc1ncc(C#N)c(N)n1)C(C)C (stereo not drawn) :
[out] true (1)

[in] GET /call?item= CCCCCCCCCCOC(=O)Cn1c(COc2cccc(OC)c2)[n+](C)c2ccccc21 returns the recorded outcome of this test.
[out] false (0)

[in] // outcome(item) with item = CCOCCCNC(=O)c1cn(CC(C)C)c(=O)c2c1c1ccccc1n2C
[out] false (0)

[in] Fill in: this test's call for CCCCCCCCCCOC(=O)Cn1c(COc2ccc(C)cc2)[n+](C)c2ccccc21 is ___
[out] true (1)

[in] Per the assay record, what outcome was assigned to Cc1cc(C(=O)NC2CCCc3c2cnn3-c2cccc(C)c2C)c(C)o1 (stereo not drawn) ?
[out] false (0)

[in] Can you look up the reported call for CCOC(=O)c1cccc(NC(=O)CCc2c(C)nc3ncnn3c2C)c1 for me?
[out] false (0)

[in] For this molecule, state the assay outcome: O=C(Nc1cccc(S(=O)(=O)Nc2ccc(Cl)cc2)c1)c1ccc2c(c1)OCCO2
[out] true (1)

[in] State the result this test recorded for COc1ccc(CN2CN(C3CCCC3)CSC2=S)cc1 .
[out] false (0)

[in] What was the test verdict on Cc1cc(C)n(CC(=O)Nc2ccc([N+](=O)[O-])cc2)n1 ?
[out] false (0)

[in] Dear colleague, could you share the recorded outcome for Cc1cc(C)cc(NS(=O)(=O)c2ccc(F)cc2)c1 when you have a moment?
[out] false (0)

[in] What call does the record list for CCCCNC(=O)c1ccccc1NC(=O)c1ccccc1N(C)S(C)(=O)=O ?
[out] false (0)

[in] State the result this test recorded for CCOC(=O)Cc1c(C)nc2c(C#N)c(C)nn2c1C .
[out] false (0)

[in] Short answer needed: outcome of this test for Cc1oc(-c2ccccc2F)nc1CS(=O)CC(=O)NCCN1CCCCC1C (stereo not drawn) ?
[out] false (0)

[in] // param item: COc1ccccc1Oc1ccc(S(=O)(=O)Nc2cccnc2)cc1 ; yields the recorded call
[out] false (0)

[in] Test call for this molecule, please: Cn1nccc1C(=O)NC1CCCc2c1cnn2-c1ccccc1F (stereo not drawn)
[out] false (0)

[in] Name the outcome recorded for O=C(Nc1cccc(S(=O)(=O)N2CCCCC2)c1)c1ccc2c(c1)OCO2 in the assay.
[out] false (0)

[in] Each molecule tested received a call. Report the one for COc1ccc(CCN2CC(C(=O)NCCN3CCNC3=O)CCC2=O)cc1 (stereo not drawn) .
[out] false (0)
